Test system: HCT 116 cells
protocol-description: Cell growth assay (CellTiter-Glo 2.0), HCT 116 MSI-H cell line
measurement-context: Homo sapiens, HCT-116, 120 h, read-out: Cell Growth Inhibition GI50 HCT-116
Consider the following molecules; for each one, report its GI50.
Give bare numbers, in nM.

molecule | unit-descriptor | GI50
Cn1ccc2cc(C(=O)N[C@H](/C=C/S(C)(=O)=O)C3CC3)c(Oc3ccccc3)nc21 | nM | 1140
CS(=O)(=O)C=C1CN(C(=O)c2cnc(C3CC3)nc2Oc2ccccc2)C1 | nM | 391
C[C@@H](/C=C/S(C)(=O)=O)NC(=O)c1cnc(C(C)(C)C)nc1OC1CCCCC1 | nM | 222
CS(=O)(=O)/C=C/CNC(=O)c1cnc(C2CCCC2)nc1Oc1ccc(F)cc1 | nM | 4800
C[C@@H](/C=C/S(C)(=O)=O)NC(=O)c1cnc(N2CCC[C@@H]2C)nc1Oc1ccccc1 | nM | 2200
CS(=O)(=O)/C=C/[C@H](Cc1ccccc1)NC(=O)c1cnc(C2CC2)nc1Oc1ccccc1 (single isomer, unassigned) | nM | 745

Below are some molecules; for each one, tell me its GI50.
1. CN(c1ncc(C(=O)N[C@H](/C=C/S(C)(=O)=O)C2CC2)c(Oc2ccccc2)n1)C1CC1
2. CS(=O)(=O)C=C1CN(C(=O)c2cnc([C@H]3C[C@@H](C)C3)nc2Oc2ccccc2)C1 (single isomer, unassigned)
3. C[C@@H](/C=C/S(C)(=O)=O)NC(=O)c1cnc(C2CCCC2)nc1Oc1cccc(O)c1

OUTPUT:
[58.2, 94.7, 5100]

###

tgt: hWRN(519-1227)_C-H3CV-GFP-10His (Homo sapiens, UniProt Q14191)
protocol-description: Helicase Assay for WRN Inhibition (ATP-dependent, fluorescence based)
measurement-context: WRN Helicase IC50, 30 min preincubation with ATP, 30 min reaction
parameter: IC50 (nM)
Numbers only, in nM.

// known answers, use as guide
compound | IC50 (nM)
Cn1ccc2cc(C(=O)N[C@H](/C=C/S(C)(=O)=O)C3CC3)c(Oc3ccccc3)nc21 [Example 250] | 4500
CC(C)(C)c1ncc(C(=O)N[C@H](/C=C/S(C)(=O)=O)C2CCC2)c(Oc2ccccc2)n1 [Example 66] | 113
C[C@@H](/C=C/S(C)(=O)=O)NC(=O)c1cnc(CC2CCCCC2)nc1Oc1ccccc1 [Example 240] | 67000

Next compound, IC50 to be filled in.
INPUT: Which IC50 reading was recorded for the compound CS(=O)(=O)/C=C/[C@@H](NC(=O)c1cnc(C(F)(F)C(F)(F)F)nc1Oc1ccccc1)C1CC1 [Example 84] ?
OUTPUT: 80

###

tgt: hWRN(519-1227)_C-H3CV-GFP-10His (Homo sapiens, UniProt Q14191)
protocol-description: Helicase Assay for WRN Inhibition (ATP-dependent, fluorescence based)
measurement-context: WRN Helicase IC50, 30 min preincubation with ATP, 30 min reaction
pIC50: −log10 of the molar value.
Rule: pIC50 of 5 or more gives t; anything lower gives f.

INPUT: Confirm if pIC50 reported for the molecule "CC(C)(C)c1ncc(C(=O)N[C@H](/C=C/S(C)(=O)=O)C2CC(F)(F)C2)c(Oc2ccccc2)n1" is 5 or above.
OUTPUT: t

INPUT: Check the entry "C[C@@H](/C=C/S(C)(=O)=O)NC(=O)c1cnc(C2CCCC2)nc1Oc1ccc(C#N)cc1" : does pIC50 equal or exceed 5?
OUTPUT: f

INPUT: Test whether the molecule C[C@@H](/C=C/S(C)(=O)=O)NC(=O)c1cnc(C2CCCC2)nc1O[C@H]1CCCC[C@@H]1O (single isomer, unassigned) records pIC50 of 5 or higher.
OUTPUT: f

INPUT: Check the entry "COC[C@@H](/C=C/S(C)(=O)=O)NC(=O)c1cnc(C(F)(F)C(F)(F)F)nc1Oc1ccccc1" : does pIC50 equal or exceed 5?
OUTPUT: t

INPUT: hey, is pIC50 for this one >= 5? "CSC[C@@H](/C=C/S(C)(=O)=O)NC(=O)c1cnc(C(C)(C)C)nc1Oc1ccccc1"
OUTPUT: t

INPUT: Reported pIC50 at or above 5? "C[C@@H](/C=C/S(C)(=O)=O)NC(=O)c1cnc(C(C)(C)C)nc1OC1CCC(F)(F)CC1"
OUTPUT: f

INPUT: Is reported pIC50 greater than or equal to 5 here: "C[C@@H](/C=C/S(C)(=O)=O)NC(=O)c1ccc(C2CCCC2)cc1Oc1ccccc1"
OUTPUT: t

###

tgt: hWRN(519-1227)_C-H3CV-GFP-10His (Homo sapiens, UniProt Q14191)
protocol-description: Helicase Assay for WRN Inhibition (ATP-dependent, fluorescence based)
measurement-context: WRN Helicase IC50, 30 min preincubation with ATP, 30 min reaction
Field: IC50. Provide a value for each of the compounds that follow.
One number for each entry, in µM.

// worked examples, IC50 included
chemical-string | unit-descriptor | IC50
CC(C)(C)c1ncc(C(=O)N[C@H](/C=C/S(C)(=O)=O)CC2CC2)c(Oc2ccccc2)n1 | µM | 0.3
Cc1ccccc1Oc1nc(C2CCCC2)ncc1C(=O)N[C@@H](C)/C=C/S(C)(=O)=O | µM | 24
CS(=O)(=O)/C=C/[C@@H](NC(=O)c1cnc(CC2CC2)nc1Oc1ccccc1)C1CC1 | µM | 0.185
CC(=O)Nc1nc(C2CCCC2)nc(Oc2ccccc2)c1C(=O)N[C@@H](C)/C=C/S(C)(=O)=O | µM | 42

Would you mind giving IC50 for every compound in the list below?
1. C[C@@H](/C=C/S(C)(=O)=O)NC(=O)c1cnc(C2CCCC2)nc1Oc1cc(Cl)cc(Cl)c1
2. CO[C@@H](C)[C@@H](/C=C/S(C)(=O)=O)NC(=O)c1cnc(C(C)(F)F)nc1Oc1ccccc1
3. CS(=O)(=O)/C=C/[C@@H](NC(=O)c1cnc(N2CC(F)C2)nc1Oc1ccccc1)C1CC1

OUTPUT:
29
0.46
1.1

###

tgt: WRN C727 (Homo sapiens)
Construct: endogenous in cells; host or cells: OCI-AML2
Sequence (Q14191 whole entry): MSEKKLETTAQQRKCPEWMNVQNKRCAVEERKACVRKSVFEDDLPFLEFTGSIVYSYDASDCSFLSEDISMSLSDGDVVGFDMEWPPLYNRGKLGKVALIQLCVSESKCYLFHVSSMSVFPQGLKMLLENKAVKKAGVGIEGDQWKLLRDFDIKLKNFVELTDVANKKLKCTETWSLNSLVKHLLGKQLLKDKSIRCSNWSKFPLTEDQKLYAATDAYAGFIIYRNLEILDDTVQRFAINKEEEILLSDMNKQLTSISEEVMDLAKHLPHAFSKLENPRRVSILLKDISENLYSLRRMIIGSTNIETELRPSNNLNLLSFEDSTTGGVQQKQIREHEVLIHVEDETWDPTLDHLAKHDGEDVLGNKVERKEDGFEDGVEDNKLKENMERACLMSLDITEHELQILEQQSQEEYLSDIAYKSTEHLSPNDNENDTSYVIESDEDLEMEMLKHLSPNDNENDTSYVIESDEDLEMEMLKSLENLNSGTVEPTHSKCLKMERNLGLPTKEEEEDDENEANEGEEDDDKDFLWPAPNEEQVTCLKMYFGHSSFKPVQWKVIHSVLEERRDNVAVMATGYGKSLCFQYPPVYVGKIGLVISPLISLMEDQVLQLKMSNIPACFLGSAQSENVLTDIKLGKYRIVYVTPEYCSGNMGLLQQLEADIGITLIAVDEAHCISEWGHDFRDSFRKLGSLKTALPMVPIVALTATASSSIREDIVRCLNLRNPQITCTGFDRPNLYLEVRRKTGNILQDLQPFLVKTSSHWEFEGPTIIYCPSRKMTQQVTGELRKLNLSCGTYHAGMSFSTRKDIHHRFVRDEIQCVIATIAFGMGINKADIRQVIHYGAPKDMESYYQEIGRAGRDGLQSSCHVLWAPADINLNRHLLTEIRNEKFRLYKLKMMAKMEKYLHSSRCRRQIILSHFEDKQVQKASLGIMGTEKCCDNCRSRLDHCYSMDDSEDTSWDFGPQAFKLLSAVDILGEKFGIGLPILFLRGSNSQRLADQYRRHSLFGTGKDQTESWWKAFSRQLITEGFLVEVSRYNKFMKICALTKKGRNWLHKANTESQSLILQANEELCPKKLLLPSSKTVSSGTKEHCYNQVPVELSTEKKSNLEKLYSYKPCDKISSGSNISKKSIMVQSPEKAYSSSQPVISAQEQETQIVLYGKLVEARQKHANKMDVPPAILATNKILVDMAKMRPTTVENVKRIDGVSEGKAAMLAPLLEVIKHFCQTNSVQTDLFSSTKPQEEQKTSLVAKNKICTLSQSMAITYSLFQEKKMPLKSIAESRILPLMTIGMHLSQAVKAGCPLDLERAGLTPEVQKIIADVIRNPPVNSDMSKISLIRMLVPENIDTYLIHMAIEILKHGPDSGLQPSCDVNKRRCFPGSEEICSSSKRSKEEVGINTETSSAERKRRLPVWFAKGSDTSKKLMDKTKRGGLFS
protocol-description: Target engagement, in vitro (lysate), OCI-AML2
Format: binding
measurement-context: read-out: OCI-AML2 WRN C727 TE50 in vitro (lysate)
Can you tell me IC50 for the items I'm about to list?

Some entries whose results are on file:
molecule | tgt | parameter | measured-result
C[C@@H](/C=C/S(C)(=O)=O)NC(=O)c1cnc(C2Cc3ccccc32)nc1Oc1ccccc1 (stereo partly drawn) [Example 52] | WRN C727 (Homo sapiens) | IC50 | > 100 µM
C[C@@H](/C=C/S(C)(=O)=O)NC(=O)c1cnc(C2CCCC2)nc1O[C@@H]1CCCC[C@@H]1O (single isomer, unassigned) [Example 130] | WRN C727 (Homo sapiens) | IC50 | > 100 µM
C[C@@H](/C=C/S(C)(=O)=O)NC(=O)c1cnc(C2CCCC2)nc1O[C@H]1CCCC[C@H]1O (single isomer, unassigned) [Example 129] | WRN C727 (Homo sapiens) | IC50 | > 100 µM

For each of the items listed, what is its IC50?
1. C[C@@H](/C=C/S(C)(=O)=O)NC(=O)c1cnc(CC(F)(F)F)nc1Oc1ccccc1 [Example 260]
2. CS(=O)(=O)/C=C/[C@@H](NC(=O)c1cnc(C(F)C2CC2)nc1Oc1ccccc1)C1CC1 (stereo partly drawn) [Example 37]
3. CS(=O)(=O)/C=C/[C@@H](NC(=O)c1cnc(C2CC2)nc1Oc1ccccc1)C1CC(F)(F)C1 [Example 30]

OUTPUT:
1. > 100 µM
2. 0.45 µM
3. 1.43 µM

###

tgt: WRN C727 (Homo sapiens)
Construct: endogenous in cells; host or cells: OCI-AML2
protocol-description: Target engagement, in vitro (lysate), OCI-AML2
Format: binding
measurement-context: read-out: OCI-AML2 WRN C727 TE50 in vitro (lysate)
parameter: pIC50
One number for each entry, as −log10 of the molar value.

chemical-string | tgt | measured-result
C[C@@H](/C=C/S(C)(=O)=O)NC(=O)c1cnc(C2CCCCC2)nc1Oc1ccccc1 | WRN C727 (Homo sapiens) | 4.59
C[C@@H](/C=C/S(C)(=O)=O)NC(=O)c1cnc(C2CCCC2)nc1Oc1ccc(O)cc1 | WRN C727 (Homo sapiens) | 4.12
C[C@@H](/C=C/S(C)(=O)=O)NC(=O)c1cnc(C23CC(C2)C3)nc1Oc1ccccc1 | WRN C727 (Homo sapiens) | 5.89

Now examine the next entry.
INPUT: Data request, read-out pIC50, for "CS(=O)(=O)/C=C/[C@@H](NC(=O)c1cnc(C2CCC2)nc1Oc1ccccc1)C1CC1"
OUTPUT: 6.96

###

tgt: hWRN(519-1227)_C-H3CV-GFP-10His (Homo sapiens, UniProt Q14191)
protocol-description: Helicase Assay for WRN Inhibition (ATP-dependent, fluorescence based)
Give IC50 for every item shown.
Numbers only, in µM.

Use the examples below as a reference point.
chemical-string | tgt | measured-result
CS(=O)(=O)C=C1CN(C(=O)c2cnc(C3CC3)nc2Oc2ccccc2)C1 | hWRN(519-1227)_C-H3CV-GFP-10His (Homo sapiens, UniProt Q14191) | 1.1
CS(=O)(=O)/C=C1/CCN(C(=O)c2cnc(C3CC3)nc2Oc2ccccc2)C1 | hWRN(519-1227)_C-H3CV-GFP-10His (Homo sapiens, UniProt Q14191) | 103
C[C@@H](/C=C/S(C)(=O)=O)NC(=O)c1ccc(C2CCCC2)c2cccnc12 | hWRN(519-1227)_C-H3CV-GFP-10His (Homo sapiens, UniProt Q14191) | 77

INPUT: IC50 for "C[C@@H](/C=C/S(C)(=O)=O)NC(=O)c1cnc(C2CC2)c2c1OC1(CCCC1)C2" ?
OUTPUT: 7
